Assay: activity coefficient (dimensionless); of the first substance listed, at infinite dilution; xn = mol fraction of the nth substance listed
Conditions: 348.15 K; 100 kPa; Liquid; Chromatography; x1 = 0
Property: activity coefficient; scope: individual compounds
Respond numerically, and do not add a unit to the figure.

Examples with answers:
| COMPOUND | MEASURED |
| --- | --- |
| CCC(C)(C)C [2,2-dimethylbutane] + CCCC[n+]1ccc(C#N)cc1.O=S(=O)([N-]S(=O)(=O)C(F)(F)F)C(F)(F)F | 23.4 |
| COC(C)=O [methyl ethanoate] + CCCC[n+]1ccc(C#N)cc1.O=S(=O)([N-]S(=O)(=O)C(F)(F)F)C(F)(F)F | 0.762 |
| CCCCCCCC [octane] + CCCC[n+]1ccc(C#N)cc1.O=S(=O)([N-]S(=O)(=O)C(F)(F)F)C(F)(F)F | 47.9 |
| CCC(C)CC [3-methylpentane] + CCCC[n+]1ccc(C#N)cc1.O=S(=O)([N-]S(=O)(=O)C(F)(F)F)C(F)(F)F | 23.1 |
| CC(C)O [propan-2-ol] + CCCC[n+]1ccc(C#N)cc1.O=S(=O)([N-]S(=O)(=O)C(F)(F)F)C(F)(F)F | 1.73 |

Notebook: CCCC(C)=O [pentan-2-one] + CCCC[n+]1ccc(C#N)cc1.O=S(=O)([N-]S(=O)(=O)C(F)(F)F)C(F)(F)F , activity coefficient read as 0.868

Notebook: CCCCO [butan-1-ol] + CCCC[n+]1ccc(C#N)cc1.O=S(=O)([N-]S(=O)(=O)C(F)(F)F)C(F)(F)F , activity coefficient read as 2.41

* * *

Experiment: activity coefficient (dimensionless); of the first substance listed, at infinite dilution; xn = mol fraction of the nth substance listed
Settings: 348.15 K; 100 kPa; Liquid; Chromatography; x1 = 0
# thresholds on activity coefficient define classes: Low = under 3, Medium = from 3 up to 10, High = 10 and over

Below, 3 molecules whose answers are already recorded.
| MOLECULE | CLASSIFICATION |
| --- | --- |
| C#CCCCC [1-hexyne] + CCCC[n+]1ccc(C#N)cc1.O=S(=O)([N-]S(=O)(=O)C(F)(F)F)C(F)(F)F | Medium |
| CCCCCCC [heptane] + CCCC[n+]1ccc(C#N)cc1.O=S(=O)([N-]S(=O)(=O)C(F)(F)F)C(F)(F)F | High |
| C#CCCCCCC [1-octyne] + CCCC[n+]1ccc(C#N)cc1.O=S(=O)([N-]S(=O)(=O)C(F)(F)F)C(F)(F)F | High |

Input: Which category does the recorded activity coefficient put CC1CCCCC1 [methylcyclohexane] + CCCC[n+]1ccc(C#N)cc1.O=S(=O)([N-]S(=O)(=O)C(F)(F)F)C(F)(F)F in?
Output: High

Input: Which category does the recorded activity coefficient put c1ccsc1 [thiophene] + CCCC[n+]1ccc(C#N)cc1.O=S(=O)([N-]S(=O)(=O)C(F)(F)F)C(F)(F)F in?
Output: Low

Input: Which category does the recorded activity coefficient put CCC(C)(C)OC [2-methoxy-2-methylbutane] + CCCC[n+]1ccc(C#N)cc1.O=S(=O)([N-]S(=O)(=O)C(F)(F)F)C(F)(F)F in?
Output: Medium

Input: Which category does the recorded activity coefficient put CCCCCC [hexane] + CCCC[n+]1ccc(C#N)cc1.O=S(=O)([N-]S(=O)(=O)C(F)(F)F)C(F)(F)F in?
Output: High
